Reference for the values: patent US8895695B2

Assay Info: in vitro;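 further: MTT reduction read as absorbance at 595 nm, blank-corrected and expressed as percent growth relative to the time-zero cell reading, triplicate wells per concentration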
Test Conditions: human
Bridge positions count the residues as written; N and C are the ends. Square brackets hold non-standard residues; d marks the D form. Peptide text beside a SMILES is read from it. Phe(4-F) = N[C@@H](Cc1ccc(F)cc1)C(=O)O; 2Nal = N[C@@H](Cc1ccc2ccccc2c1)C(=O)O; Cit = NC(=O)NCCC[C@H](N)C(=O)O
List of GI50 at 48 h values.
Supply the numeric figure in µM, leaving out any unit text.

Look at this compound and give its reported GI50 at 48 h. N=C(N)NCCC[C@@H]1NC(=O)[C@@H]2CSSC[C@H](NC(=O)[C@H](Cc3ccc4ccccc4c3)NC(=O)[C@H](CCCNC(=N)N)NC(=O)[C@H](CCCNC(=N)N)NC(=O)[C@H]3CCCN3C(=O)CNC1=O)C(=O)N[C@@H](Cc1ccc(O)cc1)C(=O)N[C@@H](CCC(N)=O)C(=O)N[C@@H](CCCCN)C(=O)N1CCC[C@@H]1C(=O)N1CCC[C@H]1C(=O)N[C@@H](Cc1ccc(O)cc1)C(=O)N[C@@H](CCCNC(=N)N)C(=O)N[C@@H](CO)C(=O)N2 [Ex. 96] (cyclo(YRSCRG[dP]RR[2Nal]CYQK[dP]P); disulfide 4-11)
69

Input N=C(N)NCCC[C@@H]1NC(=O)[C@@H]2CSSC[C@H](NC(=O)[C@H](Cc3ccc4ccccc4c3)NC(=O)[C@H](CCCNC(=N)N)NC(=O)[C@H](CCCNC(=N)N)NC(=O)[C@H]3CCCN3C(=O)CNC1=O)C(=O)N[C@@H](Cc1ccc(O)cc1)C(=O)N[C@@H](CCC(N)=O)C(=O)N[C@@H](CCCCN)C(=O)N1CCC[C@@H]1C(=O)N1CCC[C@H]1C(=O)N[C@@H](Cc1ccc(O)cc1)C(=O)N[C@@H](CCCNC(=N)N)C(=O)N[C@@H](Cc1ccc(F)cc1)C(=O)N2 [Ex. 99] (cyclo(YR[Phe(4-F)]CRG[dP]RR[2Nal]CYQK[dP]P); disulfide 4-11)
40

Input N=C(N)NCCC[C@@H]1NC(=O)[C@@H]2CSSC[C@H](NC(=O)[C@H](Cc3ccc4ccccc4c3)NC(=O)[C@H](CCCNC(=N)N)NC(=O)[C@H](CCCNC(=N)N)NC(=O)[C@H]3CCCN3C(=O)CNC1=O)C(=O)N[C@@H](Cc1ccc(O)cc1)C(=O)N[C@@H](Cc1c[nH]cn1)C(=O)N[C@@H](CCCCN)C(=O)N1CCC[C@@H]1C(=O)N1CCC[C@H]1C(=O)N[C@@H](Cc1ccc(O)cc1)C(=O)N[C@@H](CCCNC(=N)N)C(=O)N[C@@H](CCCNC(N)=O)C(=O)N2 [Ex. 58] (cyclo(YR[Cit]CRG[dP]RR[2Nal]CYHK[dP]P); disulfide 4-11)
18

Input N=C(N)NCCC[C@@H]1NC(=O)[C@@H]2CSSC[C@H](NC(=O)[C@H](Cc3ccc4ccccc4c3)NC(=O)[C@H](CCCNC(=N)N)NC(=O)[C@H](CCCNC(=N)N)NC(=O)[C@H]3CCCN3C(=O)CNC1=O)C(=O)N[C@@H](Cc1ccc(O)cc1)C(=O)N[C@@H](CCC(N)=O)C(=O)N[C@@H](CCCCN)C(=O)N1CCC[C@@H]1C(=O)N1CCC[C@H]1C(=O)N[C@@H](CO)C(=O)N[C@@H](CCCNC(=N)N)C(=O)N[C@@H](CCCNC(N)=O)C(=O)N2 [Ex. 89] (cyclo(SR[Cit]CRG[dP]RR[2Nal]CYQK[dP]P); disulfide 4-11)
50

Input CSCC[C@@H]1NC(=O)[C@H](CCCNC(=N)N)NC(=O)[C@H](Cc2ccc(O)cc2)NC(=O)[C@@H]2CCCN2C(=O)[C@H]2CCCN2C(=O)[C@H](CCCCN)NC(=O)[C@H](CCC(N)=O)NC(=O)[C@H](Cc2ccc(O)cc2)NC(=O)[C@@H]2CSSC[C@H](NC1=O)C(=O)N[C@@H](CCCNC(=N)N)C(=O)NCC(=O)N1CCC[C@@H]1C(=O)N[C@@H](CCCNC(=N)N)C(=O)N[C@@H](CCCNC(=N)N)C(=O)N[C@@H](Cc1ccc3ccccc3c1)C(=O)N2 [Ex. 100] (cyclo(YRMCRG[dP]RR[2Nal]CYQK[dP]P); disulfide 4-11)
43

Input N=C(N)NCCC[C@@H]1NC(=O)[C@@H]2CSSC[C@H](NC(=O)[C@H](Cc3ccc4ccccc4c3)NC(=O)[C@H](CCCNC(=N)N)NC(=O)[C@H](CCCNC(=N)N)NC(=O)[C@H]3CCCN3C(=O)CNC1=O)C(=O)N[C@@H](Cc1ccc(O)cc1)C(=O)N[C@@H](CCC(N)=O)C(=O)N[C@@H](CCC(N)=O)C(=O)N1CCC[C@@H]1C(=O)N1CCC[C@H]1C(=O)N[C@@H](Cc1ccc(O)cc1)C(=O)N[C@@H](CCCNC(=N)N)C(=O)N[C@@H](CCCNC(N)=O)C(=O)N2 [Ex. 60] (cyclo(YR[Cit]CRG[dP]RR[2Nal]CYQQ[dP]P); disulfide 4-11)
62

Read the next record carefully.
Look at this compound and give its reported GI50 at 48 h. CC(C)C[C@@H]1NC(=O)[C@H](Cc2ccc(O)cc2)NC(=O)[C@@H]2CSSC[C@H](NC(=O)[C@H](CCCNC(N)=O)NC(=O)[C@H](CCCNC(=N)N)NC(=O)[C@H](Cc3ccc(O)cc3)NC(=O)[C@@H]3CCCN3C(=O)[C@H]3CCCN3C(=O)[C@H](CCCCN)NC1=O)C(=O)N[C@@H](CCCNC(=N)N)C(=O)NCC(=O)N1CCC[C@@H]1C(=O)N[C@@H](CCCNC(=N)N)C(=O)N[C@@H](CCCNC(=N)N)C(=O)N[C@@H](Cc1ccc3ccccc3c1)C(=O)N2 [Ex. 82] (cyclo(YR[Cit]CRG[dP]RR[2Nal]CYLK[dP]P); disulfide 4-11)
40
